- tgt: T1, human MSLN-R2-his protein (human, UniProt Q13421 391-486)
- T1 construct: Region 2 of human mesothelin, made in HEK293E cells, His-tagged; also called human MSLN-R2 protein; hMSLN-R2-his; not shown: His tag
- assay details: ELISA on coated MSLN-R2; antibody 0.1 nM
reported endpoint: OD450 (OD450)
Supply the numeric figure in OD450, leaving out any unit text.

Before answering, review these 3 worked examples.
S009-F8-22.23 (antibody, human IgG1, kappa, V domains shown) VH: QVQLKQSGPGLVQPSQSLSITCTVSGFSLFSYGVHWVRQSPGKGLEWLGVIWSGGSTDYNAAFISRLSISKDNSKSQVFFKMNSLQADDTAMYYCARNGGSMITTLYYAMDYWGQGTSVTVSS VL: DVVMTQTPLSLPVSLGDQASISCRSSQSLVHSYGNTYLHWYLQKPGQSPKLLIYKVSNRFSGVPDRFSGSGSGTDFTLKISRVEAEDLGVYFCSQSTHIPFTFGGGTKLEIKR
0.05
S009-F8-13.8 (antibody, human IgG1, kappa, V domains shown) VH: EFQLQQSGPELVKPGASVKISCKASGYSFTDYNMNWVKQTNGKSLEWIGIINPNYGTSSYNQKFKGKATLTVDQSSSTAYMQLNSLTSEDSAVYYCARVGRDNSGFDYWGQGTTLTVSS VL: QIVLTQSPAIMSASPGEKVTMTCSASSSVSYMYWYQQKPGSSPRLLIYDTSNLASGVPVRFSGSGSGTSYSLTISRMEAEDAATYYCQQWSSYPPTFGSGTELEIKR
0.05
S009-F8-27.1 (antibody, human IgG1, kappa, V domains shown) VH: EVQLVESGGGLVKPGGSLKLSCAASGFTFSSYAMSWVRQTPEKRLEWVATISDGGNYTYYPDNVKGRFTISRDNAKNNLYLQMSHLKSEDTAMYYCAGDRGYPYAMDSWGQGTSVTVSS VL: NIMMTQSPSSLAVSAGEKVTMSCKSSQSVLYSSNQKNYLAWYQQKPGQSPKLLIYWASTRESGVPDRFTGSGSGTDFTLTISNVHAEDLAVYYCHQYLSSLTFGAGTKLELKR
0.04

# ---- query binder ----
Qu. So what does the record say about OD450 for S009-F8-8.22 (antibody, human IgG1, kappa, V domains shown) VH: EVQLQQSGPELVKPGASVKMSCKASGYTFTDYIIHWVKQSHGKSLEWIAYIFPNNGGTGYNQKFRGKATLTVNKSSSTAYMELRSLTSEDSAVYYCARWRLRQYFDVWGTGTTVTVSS VL: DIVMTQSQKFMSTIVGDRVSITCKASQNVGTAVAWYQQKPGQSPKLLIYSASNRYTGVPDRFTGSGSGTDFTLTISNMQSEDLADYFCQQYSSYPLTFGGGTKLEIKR ?
Ans. 0.04

Reference source: patent US20250250357A1
